# Test target: canine TRPM8 (Canis lupus familiaris, UniProt Q1A7N1)
# Construct: expressed in transfected cells
# Sequence (Q1A7N1 1-1104): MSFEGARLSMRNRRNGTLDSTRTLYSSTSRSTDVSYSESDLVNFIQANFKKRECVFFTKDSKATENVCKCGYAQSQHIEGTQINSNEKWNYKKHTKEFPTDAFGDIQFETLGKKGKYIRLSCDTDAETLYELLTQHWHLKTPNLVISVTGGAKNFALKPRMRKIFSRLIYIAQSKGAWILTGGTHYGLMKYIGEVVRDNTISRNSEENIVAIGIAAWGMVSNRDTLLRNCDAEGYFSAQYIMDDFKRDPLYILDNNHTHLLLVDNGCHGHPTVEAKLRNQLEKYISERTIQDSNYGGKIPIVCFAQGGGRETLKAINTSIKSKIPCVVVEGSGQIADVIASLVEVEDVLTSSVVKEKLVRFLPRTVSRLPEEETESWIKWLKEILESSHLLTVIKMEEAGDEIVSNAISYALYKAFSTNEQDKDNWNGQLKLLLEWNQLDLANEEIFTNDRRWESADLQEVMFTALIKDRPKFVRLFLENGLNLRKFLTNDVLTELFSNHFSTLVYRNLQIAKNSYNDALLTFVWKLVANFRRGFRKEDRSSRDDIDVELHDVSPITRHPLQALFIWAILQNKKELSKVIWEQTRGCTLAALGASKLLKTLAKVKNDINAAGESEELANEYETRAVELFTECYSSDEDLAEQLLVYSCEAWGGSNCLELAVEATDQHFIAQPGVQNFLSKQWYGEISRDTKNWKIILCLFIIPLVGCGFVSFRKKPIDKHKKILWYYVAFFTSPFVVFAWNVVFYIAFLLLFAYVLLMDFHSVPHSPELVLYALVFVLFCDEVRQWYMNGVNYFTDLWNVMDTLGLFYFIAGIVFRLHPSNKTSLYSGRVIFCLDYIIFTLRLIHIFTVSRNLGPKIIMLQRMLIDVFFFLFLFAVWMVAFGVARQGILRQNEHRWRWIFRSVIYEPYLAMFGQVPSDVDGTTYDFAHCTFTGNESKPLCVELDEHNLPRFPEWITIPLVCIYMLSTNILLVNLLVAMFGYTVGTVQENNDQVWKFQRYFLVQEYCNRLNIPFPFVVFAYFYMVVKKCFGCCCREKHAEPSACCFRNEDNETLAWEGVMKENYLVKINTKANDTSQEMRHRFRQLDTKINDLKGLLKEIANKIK
# Assay method text: In Vitro Canine TRPM8 Functional Assay (Ca2+ fluorescence, icilin activation)
# Type: cell-based
# Condition label: HEK293, 0.2 μM compound; canine TRPM8 HEK293; icilin
Property: inhibition at 0.2 µM
Returns: string containing the number followed by the unit.

Compound | inhibition at 0.2 µM
CC(=O)Nc1ccc(C2CCCN2C(=O)C(Nc2ccccc2F)c2ccc(C(F)(F)F)cc2)cc1 (stereo not shown) | 102%
O=C(C(Nc1ccccc1F)c1ccc2c(c1)CCO2)N1CCC[C@H]1c1ccccc1F (mixture of isomers) | 96%
O=C(C(Nc1ccccc1F)c1cc2ccccc2s1)N1CCCC1c1ccncc1 (single isomer, unassigned) | 89%

Field: next compound
The reported inhibition at 0.2 µM of the compound COc1ccccc1C1CCCN1C(=O)C(Nc1ccccc1F)c1ccc(Br)cc1 (single isomer, unassigned) was 85%

====

# Test target: canine TRPM8 (Canis lupus familiaris, UniProt Q1A7N1)
# Construct: expressed in transfected cells
# Assay method text: In Vitro Canine TRPM8 Functional Assay (Ca2+ fluorescence, icilin activation)
# Assay type: cell-based
# Condition label: HEK293, 0.2 μM compound; canine TRPM8 HEK293; icilin
Kindly supply the reported inhibition at 0.2 µM values for the records listed here.
One number for each entry, in %.

Hi team, please reply with inhibition at 0.2 µM for each item in this list.
1. O=C(C(Nc1c(F)cccc1F)c1ccc(CO)cc1)N1CCC[C@H]1c1ccccc1F (some centres unmarked) [Cpd 219]
2. O=C(C(Nc1ccccc1F)c1ccc(C(F)(F)F)cc1)N1CCCC1c1ccccc1F (single isomer, unassigned) [Cpd 149]
3. O=C(C(Nc1ccccc1F)c1ccc(-c2ccccn2)cc1)N1CCCC1c1ccccc1F (single isomer, unassigned) [Cpd 296]
4. O=C(C(Nc1c(F)cccc1F)c1cc2ccccc2s1)N1CCCC1c1ccccc1F (centres unmarked) [Cpd 361]
5. O=C(O)c1cccc([C@@H]2CCCN2C(=O)C(Nc2ccccc2F)c2ccc(C(F)(F)F)cc2)c1 (mixture of isomers) [Cpd 349]

a:
1. 89
2. 83
3. 88
4. 96
5. 100

Need inhibition at 0.2 µM for each of these compounds.
1. O=C(C(Nc1ccccc1)c1cccnc1)N1CCCC1c1ccccc1F (centres unmarked) [Cpd 214]
2. O=C(C(Nc1ccccc1F)c1ccc2ncccc2c1)N1CCCC1c1ccccc1F (centres unmarked) [Cpd 248]
3. O=C(C(Nc1ccccc1F)c1cc2cccnc2s1)N1CCCC1c1ccccc1F (centres unmarked) [Cpd 328]

a:
58
94
101

====

# Test target: canine TRPM8 (Canis lupus familiaris, UniProt Q1A7N1)
# Assay method text: In Vitro Canine TRPM8 Functional Assay (Ca2+ fluorescence, icilin activation)
# Condition label: HEK293 cells stably expressing canine TRPM8; icilin activation; Ca2+ fluorescence
Property: log10 IC50 (log10 of the value in nM)
# values: log10(IC50), units nM

Molecule | Observed measurement
O=C(C(Nc1ccccc1F)c1cc2ccccc2s1)N1CCCC1c1ccccn1 (single isomer, unassigned) [Cpd 330] | 0.78

Provide log10 IC50 values for the following items, in order.
1. COC(=O)c1ccc(C2CCCN2C(=O)C(Nc2ccccc2F)c2ccc(C(F)(F)F)cc2)cc1 (centres unmarked) [Cpd 220]
2. O=C(C(Nc1ccccc1)c1ccc(Cl)cc1)N1CCCC1c1ccccc1Cl (centres unmarked) [Cpd 84]
3. Cc1nc2ccc(C(Nc3ccccc3F)C(=O)N3CCCC3c3ccccc3F)cc2s1 (single isomer, unassigned) [Cpd 341]
4. O=C(C(Nc1ccccc1)c1ccc(C(F)(F)F)cc1)N1CCCC1c1ccccc1C(F)(F)F (single isomer, unassigned) [Cpd 31]

a:
1: 1.68; 2: 1.18; 3: 1.38; 4: 1.69

I have 3 molecules here; please give me log10 IC50 for each one.
1. O=C(C(Nc1ccccc1F)c1cnc2ccccc2c1)N1CCCC1c1ccccc1Cl (centres unmarked) [Cpd 373]
2. O=C(C(Nc1ccccc1)c1ccc(C(F)(F)F)cc1)N1CCCC1c1ccccn1 (centres unmarked) [Cpd 50]
3. O=C(C(Nc1ccccc1)c1ccc(C(F)(F)F)cc1)N1CCCC1c1cccnc1 (centres unmarked) [Cpd 19]

a:
0.78
2.58
2.45

====

# Test target: UniProtKB Q1A7N1
# Assay method text: In Vitro Canine TRPM8 Functional Assay (Ca2+ fluorescence, icilin activation)
# Condition label: HEK293 cells stably expressing canine TRPM8; icilin activation; Ca2+ fluorescence
Property: pIC50
Give bare numbers, as −log10 of the molar value.

Some entries whose results are on file:
Compound | pIC50
O=C(C(Nc1ccccc1F)c1ccc(Br)cc1)N1[C@H](CO)CC[C@@H]1c1ccccc1 (mixture of isomers) | 6.95
O=C(C(Nc1ccccc1F)c1cc2ccccc2s1)N1CCCC1c1ccncc1 (single isomer, unassigned) [Cpd 323] | 7.62
CC(=O)Nc1cccc(C2CCCN2C(=O)C(Nc2ccccc2F)c2ccc(C(F)(F)F)cc2)c1 (centres unmarked) | 7.59
O=C(C(Nc1ccccc1F)c1ccc(Cl)cc1)N1Cc2ccccc2C1 (centres unmarked) | 7.21
CC(C)(C)c1ccc(C(Nc2ccccc2)C(=O)N2CCCC2c2ccncc2)cc1 (centres unmarked) | 7.27
O=C(C(Nc1c(F)cccc1F)c1ccc(CO)cc1)N1CCC[C@H]1c1ccccc1F (some centres unmarked) | 7.17
O=C(C(Nc1ccccc1F)c1ccc(Cl)cc1)N1CCCC1c1ccccc1 (centres unmarked) | 7.74

Attention now turns to another entry.
// COc1ccc(NC(C(=O)N2Cc3ccccc3C2)c2ccc(Cl)cc2)cc1 (centres unmarked) : pIC50 value = 6.88

====

# Test target: canine TRPM8 (Canis lupus familiaris, UniProt Q1A7N1)
# Assay method text: In Vitro Canine TRPM8 Functional Assay (Ca2+ fluorescence, icilin activation)
# Condition label: HEK293 cells stably expressing canine TRPM8; icilin activation; Ca2+ fluorescence
Property: IC50 (nM)
Numbers only, in nM.

Compound | Property | Unit symbol | Observed measurement
O=C(C(Nc1ccccc1F)c1ccc(C(F)(F)F)cc1)N1CCCC1c1cccc(F)c1 (single isomer, unassigned) [Cpd 185] | IC50 | nM | 150
O=C(C(Nc1c(F)cccc1F)c1ccc(Br)cc1)N1CCCC1c1ccccc1F (single isomer, unassigned) | IC50 | nM | 5.45

Would you be so kind as to report IC50 for each listed record?
1. COc1ccccc1C1CCCN1C(=O)C(Nc1ccc(F)cc1)c1ccc(Cl)cc1 (stereo not shown)
2. O=C(C(CNc1ccccc1)c1ccc(C(F)(F)F)cc1)N1CCc2ccccc21 (racemic)

a:
31.7
233

====

# Test target: canine TRPM8 (Canis lupus familiaris)
# Construct: expressed in transfected cells
# Assay method text: In Vitro Canine TRPM8 Functional Assay (Ca2+ fluorescence, icilin activation)
# Type: cell-based
# Condition label: HEK293, 0.5 μM compound; canine TRPM8 HEK293; icilin
Kindly supply the reported inhibition at 0.5 µM values for the records listed here.
One number for each entry, in %.

Past entries and their recorded results:
Molecule | inhibition at 0.5 µM, %
O=C(C(Nc1ccccc1F)c1ccc(Br)cc1)N1CCc2ccccc2C1 (centres unmarked) [Cpd 93] | 95
CC(Nc1ccccc1)(C(=O)N1CCCC1c1ccccc1Cl)c1ccc(C(F)(F)F)cc1 (centres unmarked) [Cpd 80] | 69
O=C(C(Nc1ccccc1F)c1ccc(C(F)(F)F)cc1)N1CCCC1c1ccccc1Cl (racemic) [Cpd 68] | 103
O=C(C(Nc1ccc(F)cc1)c1ccc(C(F)(F)F)cc1)N1CCCC1c1ccccc1Cl (centres unmarked) [Cpd 74] | 98
COc1ccccc1C1CCCN1C(=O)C(Nc1ccc(F)cc1F)c1ccc(Cl)cc1 (centres unmarked) [Cpd 124] | 98

I would be grateful if you could provide inhibition at 0.5 µM for each of the following entries.
1. COc1ccc(NC(C(=O)N2CCCC2c2ccccc2Cl)c2ccc(Cl)cc2)cc1 (centres unmarked) [Cpd 136]
2. O=C(C(Nc1ccccc1F)c1ccc(Cl)cc1)N1CCC[C@H]1c1ccccc1F (mixture of isomers) [Cpd 156]
3. O=C(C(Nc1ccccc1)c1ccc(Cl)cc1)N1Cc2ccccc2C1 (centres unmarked) [Cpd 87]

a:
90
92
97

====

Field: % Inh @ 0.5 μM. Provide a value for each of the molecules that follow.
# Test target: canine TRPM8 (Canis lupus familiaris)
# Construct: expressed in transfected cells
# Assay method text: In Vitro Canine TRPM8 Functional Assay (Ca2+ fluorescence, icilin activation)
# Type: cell-based
# Condition label: 0.5 μM compound; canine TRPM8 HEK293; icilin; 0.5 µM
Numbers only, in %.

Record excerpt, results attached:
Molecule | Observed measurement
O=C(C(CNc1ccccc1)c1ccc(C(F)(F)F)cc1)N1CCCC1c1ccccc1 (mixture of isomers) [Cpd 95] | 67
O=C(C(Nc1ccccc1)c1ccc(C(F)(F)F)cc1)N1CCCC1c1ccccc1Cl (single isomer, unassigned) [Cpd 22] | 102.36

Please find the next molecule below.
Record CC(C)(C)c1ccc(C(Nc2ccccc2)C(=O)N2CCCC2c2ccccn2)cc1 (stereo not drawn) [Cpd 54] . Reported % Inh @ 0.5 μM: 69.055
